Reported IC50 is given for each of the following molecules.
- experimental.target: Mcl-1/Bak protein-protein interactions (Homo sapiens, UniProt Q07820)
- Sequence (Q07820 whole entry): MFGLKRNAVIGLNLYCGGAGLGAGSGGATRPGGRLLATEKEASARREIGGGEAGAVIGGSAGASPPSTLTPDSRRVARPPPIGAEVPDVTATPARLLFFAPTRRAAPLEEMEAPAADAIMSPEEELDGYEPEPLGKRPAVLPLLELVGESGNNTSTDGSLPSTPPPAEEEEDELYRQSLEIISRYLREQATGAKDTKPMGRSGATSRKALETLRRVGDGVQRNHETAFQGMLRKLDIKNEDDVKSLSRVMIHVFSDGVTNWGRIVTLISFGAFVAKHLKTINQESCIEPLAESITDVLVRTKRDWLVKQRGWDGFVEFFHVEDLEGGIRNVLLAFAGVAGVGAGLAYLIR
- assay.method.text: Cell-based split luciferase complementation assay
- condition.notes: HEK 293 M cells, serum-free, 4 h
endpoint: IC50 (nM)

molecule	measurement.unit	result.value
CC1(C)C/C=C/[C@H](O)[C@@H]2CC[C@H]2CN2C[C@@]3(CCCc4cc(Cl)ccc43)COc3ccc(cc32)C(=O)NS(=O)(=O)C1 [Example 1]	nM	163
COCCO[C@H]1/C=C/C[C@@H](C)[C@@H](C(C)C)S(=O)(=O)NC(=O)c2ccc3c(c2)N(C[C@@H]2CC[C@H]21)C[C@@]1(CCCc2cc(Cl)ccc21)CO3 [Example 54]	nM	29.1
CC[C@@H]1CCCC[C@H](OC)[C@@H]2CC[C@H]2CN2C[C@@]3(CCCc4cc(Cl)ccc43)COc3ccc(cc32)C(=O)NS1(=O)=O [Example 21]	nM	192
C[C@@H]1CCC[C@H](O)[C@@H]2CC[C@H]2CN2C[C@@]3(CCCc4cc(Cl)ccc43)COc3ccc(cc32)C(=O)NS(=O)(=O)[C@H]1C (single isomer, unassigned) [Example 36]	nM	1500
CC(C)C[C@@H]1[C@@H](C)C/C=C/[C@H](O)[C@@H]2CC[C@H]2CN2C[C@@]3(CCCc4cc(Cl)ccc43)COc3ccc(cc32)C(=O)NS1(=O)=O (single isomer, unassigned) [Example 66]	nM	224

###

- experimental.target: Mcl-1/Bak protein-protein interactions (Homo sapiens)
- assay.method.text: Cell-based split luciferase complementation assay
- condition.notes: HEK 293 M cells, serum-free, 4 h
Reported IC50 is given for each of the following molecules.
endpoint: IC50 (µM)

molecule	measurement.unit	result.value
CC(C)C[C@@H]1[C@@H](C)C/C=C/[C@H](O)[C@@H]2CC[C@H]2CN2C[C@@]3(CCCc4cc(Cl)ccc43)COc3ccc(cc32)C(=O)NS1(=O)=O (single isomer, unassigned) [Example 67]	µM	0.0848
CO[C@H]1CCCC[C@@H](C)S(=O)(=O)NC(=O)c2ccc3c(c2)N(C[C@@H]2CC[C@H]21)C[C@@]1(CCCc2cc(Cl)ccc21)CO3	µM	0.107
CC1(C)CCCC[C@H](O)[C@@H]2CC[C@H]2CN2C[C@@]3(CCCc4cc(Cl)ccc43)COc3ccc(cc32)C(=O)NS1(=O)=O	µM	0.85
COCCO[C@H]1/C=C/CC[C@@H](C)S(=O)(=O)NC(=O)c2ccc3c(c2)N(C[C@@H]2CC[C@H]21)C[C@@]1(CCCc2cc(Cl)ccc21)CO3	µM	0.0774
CO[C@H]1/C=C/CCCS(=O)(=O)NC(=O)c2ccc3c(c2)N(C[C@@H]2CC[C@H]21)C[C@@]1(CCCc2cc(Cl)ccc21)CO3	µM	0.127
C[C@@H]1C/C=C/[C@H](O)[C@@H]2CC[C@H]2CN2C[C@@]3(CCCc4cc(Cl)ccc43)COc3ccc(cc32)C(=O)NS(=O)(=O)[C@H]1CC1CCC1 (single isomer, unassigned) [Example 63]	µM	0.0307
CC(C)[C@@H]1[C@H](C)C/C=C/[C@H](O)[C@@H]2CC[C@H]2CN2C[C@@]3(CCCc4cc(Cl)ccc43)COc3ccc(cc32)C(=O)NS1(=O)=O (single isomer, unassigned) [Example 51]	µM	0.792
C[C@@H]1C/C=C/[C@H](O)[C@@H]2CC[C@H]2CN2C[C@@]3(CCCc4cc(Cl)ccc43)COc3ccc(cc32)C(=O)NS(=O)(=O)C1 (single isomer, unassigned)	µM	0.0265
CC(C)C[C@@H]1[C@@H](C)C/C=C/[C@H](O)[C@@H]2CC[C@H]2CN2C[C@@]3(CCCc4cc(Cl)ccc43)COc3ccc(cc32)C(=O)NS1(=O)=O (single isomer, unassigned) [Example 65]	µM	0.376
CC1(C)CC/C=C\[C@H](O)[C@@H]2CC[C@H]2CN2C[C@@]3(CCCc4cc(Cl)ccc43)COc3ccc(cc32)C(=O)NS1(=O)=O (single isomer, unassigned)	µM	0.129

###

- Test system: OPM-2
- assay.method.text: Cell viability assay (OPM-2 10 FBS, CellTiter-Glo)
- Type: cell-based, human
- condition.notes: OPM-2 cells, 16 h

compound	IC50, nM
CCC[C@@H]1[C@@H](C)C/C=C/[C@H](O)[C@@H]2CC[C@H]2CN2C[C@@]3(CCCc4cc(Cl)ccc43)COc3ccc(cc32)C(=O)NS1(=O)=O (single isomer, unassigned) [Example 68]	179
CC(C)C[C@@H]1[C@@H](C)C/C=C/[C@H](O)[C@@H]2CC[C@H]2CN2C[C@@]3(CCCc4cc(Cl)ccc43)COc3ccc(cc32)C(=O)NS1(=O)=O (single isomer, unassigned) [Example 66]	2330
C[C@H]1C/C=C/[C@H](O)[C@@H]2CC[C@H]2CN2C[C@@]3(CCCc4cc(Cl)ccc43)COc3ccc(cc32)C(=O)NS(=O)(=O)[C@@H]1C1CC1 (single isomer, unassigned) [Example 47]	284
C[C@H]1C/C=C/[C@H](O)[C@@H]2CC[C@H]2CN2C[C@@]3(CCCc4cc(Cl)ccc43)COc3ccc(cc32)C(=O)NS(=O)(=O)[C@@H]1CC1CC1 (single isomer, unassigned) [Example 60]	158
C[C@H]1C/C=C/[C@H](O)[C@@H]2CC[C@H]2CN2C[C@@]3(CCCc4cc(Cl)ccc43)COc3ccc(cc32)C(=O)NS(=O)(=O)[C@@H]1C1CC1 (single isomer, unassigned) [Example 44]	208
CC(C)[C@@H]1[C@H](C)C/C=C/[C@H](O)[C@@H]2CC[C@H]2CN2C[C@@]3(CCCc4cc(Cl)ccc43)COc3ccc(cc32)C(=O)NS1(=O)=O (single isomer, unassigned) [Example 49]	184
C[C@H]1C/C=C/[C@H](O)[C@@H]2CC[C@H]2CN2C[C@@]3(CCCc4cc(Cl)ccc43)COc3ccc(cc32)C(=O)NS(=O)(=O)C1 (single isomer, unassigned) [Example 29]	5580
C[C@@H]1CCC[C@H](O)[C@@H]2CC[C@H]2CN2C[C@@]3(CCCc4cc(Cl)ccc43)COc3ccc(cc32)C(=O)NS(=O)(=O)[C@@H]1C (single isomer, unassigned) [Example 35]	723
CCC[C@@H]1[C@@H](C)C/C=C/[C@H](O)[C@@H]2CC[C@H]2CN2C[C@@]3(CCCc4cc(Cl)ccc43)COc3ccc(cc32)C(=O)NS1(=O)=O (single isomer, unassigned) [Example 69]	2710

###

- experimental.target: Mcl-1/Bak protein-protein interactions (Homo sapiens, UniProt Q07820)
- assay.method.text: Cell-based split luciferase complementation assay
- condition.notes: HEK 293 M cells, serum-free, 4 h
Reported IC50 is given for each of the following compounds.
endpoint: IC50 (nM)

compound	endpoint	result.value
CC[C@@H]1C/C=C/[C@H](O)[C@@H]2CC[C@H]2CN2C[C@@]3(CCCc4cc(Cl)ccc43)COc3ccc(cc32)C(=O)NS(=O)(=O)C1 (single isomer, unassigned) [Example 33]	IC50	872
C[C@H]1C/C=C/[C@H](O)[C@@H]2CC[C@H]2CN2C[C@@]3(CCCc4cc(Cl)ccc43)COc3ccc(cc32)C(=O)NS(=O)(=O)[C@@H]1CC1CC1 (single isomer, unassigned) [Example 60]	IC50	23.4
CO[C@H]1CCC[C@H](C)[C@@H](C)S(=O)(=O)NC(=O)c2ccc3c(c2)N(C[C@@H]2CC[C@H]21)C[C@@]1(CCCc2cc(Cl)ccc21)CO3 [Example 7]	IC50	147

###

Reported log10 of IC50 is given for each of the following compounds.
- experimental.target: Mcl-1/Bak protein-protein interactions (Homo sapiens, UniProt Q07820)
- assay.method.text: Cell-based split luciferase complementation assay
- condition.notes: HEK 293 M cells, serum-free, 4 h
endpoint: log10 of IC50 (log10 of the value in nM)

compound	experimental.target	endpoint	result.value
C[C@H]1C/C=C/[C@H](O)[C@@H]2CC[C@H]2CN2C[C@@]3(CCCc4cc(Cl)ccc43)COc3ccc(cc32)C(=O)NS(=O)(=O)[C@@H]1C1CC1 (single isomer, unassigned) [Example 45]	Mcl-1/Bak protein-protein interactions (Homo sapiens, UniProt Q07820)	log10 of IC50	2.66
CCCCO[C@H]1/C=C/C[C@H](C)[C@@H](C)S(=O)(=O)NC(=O)c2ccc3c(c2)N(C[C@@H]2CC[C@H]21)C[C@@]1(CCCc2cc(Cl)ccc21)CO3 [Example 73]	Mcl-1/Bak protein-protein interactions (Homo sapiens, UniProt Q07820)	log10 of IC50	1.54
CC[C@@H]1[C@@H](C)C/C=C/[C@H](O)[C@@H]2CC[C@H]2CN2C[C@@]3(CCCc4cc(Cl)ccc43)COc3ccc(cc32)C(=O)NS1(=O)=O (single isomer, unassigned) [Example 24]	Mcl-1/Bak protein-protein interactions (Homo sapiens, UniProt Q07820)	log10 of IC50	1.30
C[C@H]1C/C=C/[C@H](O)[C@@H]2CC[C@H]2CN2C[C@@]3(CCCc4cc(Cl)ccc43)COc3ccc(cc32)C(=O)NS(=O)(=O)[C@@H]1C1CCC1 (single isomer, unassigned) [Example 57]	Mcl-1/Bak protein-protein interactions (Homo sapiens, UniProt Q07820)	log10 of IC50	2.57
C[C@H]1CCC[C@H](O)[C@@H]2CC[C@H]2CN2C[C@@]3(CCCc4cc(Cl)ccc43)COc3ccc(cc32)C(=O)NS(=O)(=O)[C@H]1C [Example 37]	Mcl-1/Bak protein-protein interactions (Homo sapiens, UniProt Q07820)	log10 of IC50	2.82
